System: Mycobacterium tuberculosis
Assay: Antibacterial activity against multi-drug resistant Mycobacterium tuberculosis clinical isolate PT12 assessed as bacterial growth inhibition measured after 7 days by resazurin based assay
Format: functional
Settings: 168 h, time 7 day
Below, each entry is listed alongside its reported MIC.

compound	MIC
Cc1cc(OCC(=O)Nc2ccc(N3CCC(c4ccccc4)CC3)cc2)c2cc(Br)ccc2n1	< 0.02 µM
COc1ccc2nc(C)cc(OCC(=O)Nc3ccc(N4CCC(c5ccc(OC(F)(F)F)cc5)CC4)cc3)c2c1	< 0.02 µM
NNC(=O)c1ccncc1 [ISONIAZID]	146 µM
Cc1cc(OCC(=O)Nc2ccc(N3CCC(c4ccccc4)CC3)cc2)c2cc(Cl)ccc2n1	< 0.02 µM
CO[C@H]1/C=C/O[C@@]2(C)Oc3c(C)c(O)c4c(O)c(c(/C=N/N5CCN(C)CC5)c(O)c4c3C2=O)NC(=O)/C(C)=C\C=C\[C@H](C)[C@H](O)[C@@H](C)[C@@H](O)[C@@H](C)[C@H](OC(C)=O)[C@@H]1C [RIFAMPIN]	> 48.6 µM
COc1ccc2nc(C)cc(OCC(=O)Nc3ccc(N4CCC(c5ccccc5)CC4)cc3)c2c1	< 0.02 µM

---

Tested on: Mycobacterium tuberculosis
Assay: Antibacterial activity against qcrB-resistant Mycobacterium tuberculosis harbouring T313A mutant assessed as bacterial growth inhibition measured after 7 days by resazurin based assay
Type: functional
Conditions: time 7 day
measured.attribute: MIC

In [3]: df
Out[3]:
                                smiles_text   reading
0  Cc1cc(OCC(=O)Nc2ccc(N3CCC(c4ccccc4)CC3)cc2)c2cc(Br)ccc2n1   >9.4 µM
1  COc1ccc2nc(C)cc(OCC(=O)Nc3ccc(N4CCC(c5ccccc5)CC4)cc3)c2c1  >10.4 µM
2                           NNC(=O)c1ccncc1    2.3 µM
3  COc1ccc2nc(C)cc(OCC(=O)Nc3ccc(N4CCC(c5ccc(OC(F)(F)F)cc5)CC4)cc3)c2c1   >8.8 µM
4  Cc1cc(OCC(=O)Nc2ccc(N3CCC(c4ccccc4)CC3)cc2)c2cc(Cl)ccc2n1  >10.3 µM
